Assignment: determine reported Trimeric HA Binding: RLU for the given binders.
Biological target: recombinant soluble homotrimeric HA of A/Indonesia/5/05 (H5N1) (Influenza A virus A/Indonesia/5/2005(H5N1))
Experiment: trimeric HA microarray, transfection supernatant set 2
Details: remark: other sources report otherwise
Give bare numbers, in RLU.

# example entries with known answers
{"binder": "TCN-522 (3212_I12) (antibody, V domains shown) VH: QVQLQQWGAGLLKPSETLSLTCTVSGGSLTDYSWNWIRQPPGKGLEWIGDTLHNGYTNYNPSLRGRVSISIDTSKNQVSLRLTSVTAADTALYYCARGSGGYGGFDYFGKLRTWDFWGQGTLVTVSS VL: DIQLTQSPSSLSASVGDRVTITCRASQGIRNDLGWYQQKPGNAPKRLIFGASSLQSGVPSRFSGSGSGTEFTLTISSLQPEDFATYYCLQHNSYPYTFGQGTKLEIK", "outputUnit": "RLU", "assayResult": 50500}
{"binder": "TCN-563 (5237_B21) (antibody, V domains shown) VH: QVQLAQSGAEVKRPGSSVKVSCTASGGIFRKNAISWVRQAPGQGLEWMGGIIAVFNTANYAQKFQGRVKITADESGNTAYMELSSLRSDDTAVYYCASHPKYFYGSGSYPDFWGQGTLVTVSS VL: QSALTQPRSVSGSPGQSVTISCTGSSSDVGASNSVSWYQQHPGKAPKLVIYDVTERPSGVPHRFSGSKSGNTASLTVSGLQPEDEADYFCCAYGGKYLVVFGGGTKVTVL", "outputUnit": "RLU", "assayResult": 47300}

Now for a further binder.
(Q) Complete the entry with Trimeric HA Binding: RLU for TCN-527 (5086_C06) (antibody, V domains shown) VH: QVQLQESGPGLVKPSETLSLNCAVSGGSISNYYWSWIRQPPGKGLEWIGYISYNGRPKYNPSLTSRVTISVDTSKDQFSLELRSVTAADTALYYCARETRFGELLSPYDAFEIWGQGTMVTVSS VL: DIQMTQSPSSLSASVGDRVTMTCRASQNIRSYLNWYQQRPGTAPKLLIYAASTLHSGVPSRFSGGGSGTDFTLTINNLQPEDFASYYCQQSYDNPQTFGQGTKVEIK
(A) 23400
